test system: MS2 coat protein; experiment: apparent KD of MS2 coat protein; higher = weaker reporter binding; details: Eterna round: R107; input ligand: arginine 13.2 mM
For each record, write down the corresponding apparent KD of MS2 coat protein.
Numbers only, in nM.

Known apparent KD of MS2 coat protein results, listed for orientation:
- sequence_input: "GGUUACUCUACGGCCGCCACUGUUAAAUAAUAAACCUGUACAUAAACAUGAGGAUCACCCAUGUACAGGACCGGGUAGUGUAACC [Tryptophan B 8]"
  reported_endpoint: "apparent KD of MS2 coat protein"
  numeric_readout: 27.6
- sequence_input: "AGCGACAUGCGUGAUACCAGCUACAUGAGGAUCACCCAUGUCAGCAGGGAACUGCUGUGUAGCCCUUGGCAGCACAGUGCAUGUC [Exclusion - Theophylline B (Freestyle 29)]"
  reported_endpoint: "apparent KD of MS2 coat protein"
  numeric_readout: 13
- sequence_input: "GCCAGACAUGAGGAUCACCCAUGUAGCGAUACCAGCUCUGUUGUGAGCCCUUGGCAGCGCACUGGCAUCGUAGGUGAUCCAAUAA [(T)''-(Ms2)-(Theo)-(T)'-(M)'_Design1]"
  reported_endpoint: "apparent KD of MS2 coat protein"
  numeric_readout: 50.4
- sequence_input: "UAAAAUAUCUGGGUGUAGGUAAUAACAGAUACCAGCCAGAUAACUGGCCCUUGGCAGCUGAAAACAUGAGGAUCACCCAUGUAAA [TheoAS 22 #OpenEnded #Ms2Late]"
  reported_endpoint: "apparent KD of MS2 coat protein"
  numeric_readout: 28.1

Okay, now this sequence:
Prompt: What value of apparent KD of MS2 coat protein has been recorded for this entry: CGCAAGCAACAUGAGGAUCACCCAUGUGAAGGAGCGCCGAAUAAGGCAGGUAGGUCGCACAUGAAUAAAUCAUGUAAAAGCUUGC [MAT - Exclusion Arginine A - Mod of Eli - D22]
Response: 33.7
